Entries and their measured pKi follow.
- Target or system: JAK2 (Homo sapiens, UniProt O60674)
- Sequence (O60674 whole entry): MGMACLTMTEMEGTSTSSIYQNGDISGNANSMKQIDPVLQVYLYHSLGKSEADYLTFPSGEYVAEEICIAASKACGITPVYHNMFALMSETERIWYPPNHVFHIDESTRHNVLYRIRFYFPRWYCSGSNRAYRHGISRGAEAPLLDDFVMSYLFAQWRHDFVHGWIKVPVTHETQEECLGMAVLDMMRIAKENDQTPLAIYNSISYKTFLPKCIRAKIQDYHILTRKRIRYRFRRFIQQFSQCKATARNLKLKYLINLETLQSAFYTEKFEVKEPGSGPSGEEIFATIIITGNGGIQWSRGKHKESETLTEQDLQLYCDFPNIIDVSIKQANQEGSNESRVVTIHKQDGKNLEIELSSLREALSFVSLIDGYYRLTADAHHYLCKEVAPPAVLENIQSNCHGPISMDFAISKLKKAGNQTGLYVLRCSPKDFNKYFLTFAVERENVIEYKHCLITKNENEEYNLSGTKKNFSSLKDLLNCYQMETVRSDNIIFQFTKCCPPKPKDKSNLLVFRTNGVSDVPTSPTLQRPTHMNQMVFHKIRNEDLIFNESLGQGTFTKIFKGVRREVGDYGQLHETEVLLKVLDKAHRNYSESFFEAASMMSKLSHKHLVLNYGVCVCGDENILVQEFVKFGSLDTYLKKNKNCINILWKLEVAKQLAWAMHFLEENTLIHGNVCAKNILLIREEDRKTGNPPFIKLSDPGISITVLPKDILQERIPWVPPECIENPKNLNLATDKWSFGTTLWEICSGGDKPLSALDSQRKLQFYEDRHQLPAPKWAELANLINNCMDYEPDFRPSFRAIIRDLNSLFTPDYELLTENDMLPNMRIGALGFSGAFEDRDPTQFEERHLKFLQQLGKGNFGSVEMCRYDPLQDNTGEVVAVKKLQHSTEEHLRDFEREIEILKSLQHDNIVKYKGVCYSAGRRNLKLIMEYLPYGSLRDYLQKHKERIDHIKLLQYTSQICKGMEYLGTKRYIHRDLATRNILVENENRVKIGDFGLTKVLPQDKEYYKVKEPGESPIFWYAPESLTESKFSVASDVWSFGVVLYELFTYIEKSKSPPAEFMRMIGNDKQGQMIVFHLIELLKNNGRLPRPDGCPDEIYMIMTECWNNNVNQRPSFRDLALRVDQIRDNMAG
- Measurement protocol: JAK2 inhibition assay (as Example 3 with JAK-2 enzyme)
- Type: biochemical
- Condition label: enzyme inhibition, Table 5
pKi: −log10 of the molar value.

INSERT INTO measurements (structure_smiles_string, result) VALUES
  ('C1=C(c2ccnc3[nH]ccc23)CCNC1', '5.30 to 6.30'),
  ('Clc1cnc2[nH]ccc2c1NC1CCCC1', '> 6.30'),
  ('CN(CCO)c1cccc(-c2ccnc3[nH]ccc23)n1', '5.30 to 6.30'),
  ('CC(C)C[C@@H](CO)Nc1cccc(-c2ccnc3[nH]ccc23)n1', '< 5.30'),
  ('c1cc(NCc2ccc3c(c2)OCO3)nc(-c2ccnc3[nH]ccc23)c1', '5.30 to 6.30'),
  ('c1cc(CNC2CC2)cc(-c2ccnc3[nH]ccc23)c1', '5.30 to 6.30');

Q. What measured pKi goes with O=C(Cc1ccccc1)Nc1cccc(-c2ccnc3[nH]ccc23)n1 ?
A. > 6.30

Q. What measured pKi goes with CC(=O)N1CCCN(c2cccc(-c3c(Cl)cnc4[nH]ccc34)n2)CC1 ?
A. > 6.30

Q. What measured pKi goes with Clc1cnc2[nH]ccc2c1-c1ccsc1 ?
A. > 6.30

Q. What measured pKi goes with CC(=O)Nc1ccccc1-c1c(Cl)cnc2[nH]ccc12 ?
A. < 5.30
